# measurementNotes: Blood pharmacokinetics, multiple ascending dose
# Assay type: in vivo, human
# experimentalSetup: human, whole blood, oral, 200 mg, Cmax, MAD 200 mg b.i.d., Day 1; mean (SD)
observable: Cmax

1) C=CC(=O)N(C)CCOc1c(N)ncnc1-c1cc(F)cc(NC(=O)c2ccc(C3CC3)cc2F)c1C
236 ng/mL

====

# measurementNotes: Blood pharmacokinetics, multiple ascending dose
# Type: in vivo, human
# experimentalSetup: human, whole blood, oral, 200 mg, Cmax, MAD 200 mg b.i.d., Day 12; mean (SD)
observable: Cmax (ng/mL)

1. C=CC(=O)N(C)CCOc1c(N)ncnc1-c1cc(F)cc(NC(=O)c2ccc(C3CC3)cc2F)c1C [Remibrutinib]
347

====

# measurementNotes: Blood pharmacokinetics, single ascending dose
# Type: in vivo, human
# experimentalSetup: human, whole blood, oral
observable: half-life

1. C=CC(=O)N(C)CCOc1c(N)ncnc1-c1cc(F)cc(NC(=O)c2ccc(C3CC3)cc2F)c1C [Remibrutinib]
1 to 2 h

====

# measurementNotes: Blood pharmacokinetics, multiple ascending dose
# Type: in vivo, human
# experimentalSetup: human, whole blood, oral, 100 mg, Cmax, MAD 100 mg b.i.d., Day 1; mean (SD)
observable: Cmax (ng/mL)

1. C=CC(=O)N(C)CCOc1c(N)ncnc1-c1cc(F)cc(NC(=O)c2ccc(C3CC3)cc2F)c1C
180

====

# measurementNotes: Blood pharmacokinetics, multiple ascending dose
# Type: in vivo, human
# experimentalSetup: human, whole blood, oral, 100 mg, Tmax, MAD 100 mg b.i.d., Day 12; median (minimum-maximum)
observable: Tmax (min)

1. C=CC(=O)N(C)CCOc1c(N)ncnc1-c1cc(F)cc(NC(=O)c2ccc(C3CC3)cc2F)c1C
46.5

====

# measurementNotes: Blood pharmacokinetics, multiple ascending dose
# Assay type: in vivo, human
# experimentalSetup: human, whole blood, oral, 200 mg, AUClast, MAD 200 mg b.i.d., Day 1; mean (SD)
observable: AUC(0-t)

1. C=CC(=O)N(C)CCOc1c(N)ncnc1-c1cc(F)cc(NC(=O)c2ccc(C3CC3)cc2F)c1C
464 ng·h/mL

====

# measurementNotes: Blood pharmacokinetics, multiple ascending dose
# Format: in vivo, human
# experimentalSetup: human, whole blood, oral, 200 mg, Tmax, MAD 200 mg b.i.d., Day 12; median (minimum-maximum)
observable: Tmax

1) C=CC(=O)N(C)CCOc1c(N)ncnc1-c1cc(F)cc(NC(=O)c2ccc(C3CC3)cc2F)c1C
59.5 min

====

# measurementNotes: Blood pharmacokinetics, multiple ascending dose
# Format: in vivo, human
# experimentalSetup: human, whole blood, oral, 100 mg, Tmax, MAD 100 mg b.i.d., Day 1; median (minimum-maximum)
observable: Tmax (h)

1. C=CC(=O)N(C)CCOc1c(N)ncnc1-c1cc(F)cc(NC(=O)c2ccc(C3CC3)cc2F)c1C [Remibrutinib]
1.5

====

# measurementNotes: Blood pharmacokinetics, single ascending dose
# Format: in vivo, human
# experimentalSetup: human, whole blood, po
observable: Tmax

1) C=CC(=O)N(C)CCOc1c(N)ncnc1-c1cc(F)cc(NC(=O)c2ccc(C3CC3)cc2F)c1C
30 to 75 min

====

# measurementNotes: Blood pharmacokinetics, multiple ascending dose
# Assay type: in vivo, human
# experimentalSetup: human, whole blood, oral, 200 mg, AUC0–12 h, MAD 200 mg b.i.d., Day 12; mean (SD)
observable: AUC(0-t)

1. C=CC(=O)N(C)CCOc1c(N)ncnc1-c1cc(F)cc(NC(=O)c2ccc(C3CC3)cc2F)c1C
890 ng·h/mL
